Data origin: paper PMC5419745

- measurement-target: 1R CID S1078Q
- experiment: ITC; iTC200, 25°C, 20 mM sodium phosphate, pH 7.4, 150 mM NaCl; both partners dialysed against the same buffer
measured-metric: Kd (nM)
Give the value, in units of nM, as a plain number.

What the record says about IPPNALQDLLRTLRSPSSPQQQQQVLNILKSNPQLMAAFIKQRAAKYQ (domain or fragment, modifications not checked) [1R/2R NCBD] : Kd is 250
